Test system: HeLa Kyoto;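 further: synchronized HeLa Kyoto cells (double thymidine block for G1/S, nocodazole release for mitosis), protein amounts in NP-40 versus SDS lysates quantified by mass spectrometry, three biological replicates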
assay.method.text: solubility change mitosis vs G1/S (difference of NP-40 vs SDS log2 ratios) (log2 ratio difference); higher = more soluble in mitosis
Consider the following sequences; for each one, report its solubility change mitosis (log2).
Numbers only.

Would you please look over these solved cases?
Item: MRLFLWNAVLTLFVTSLIGALIPEPEVKIEVLQKPFICHRKTKGGDLMLVHYEGYLEKDGSLFHSTHKHNNGQPIWFTLGILEALKGWDQGLKGMCVGEKRKLIIPPALGYGKEGKGKIPPESTLIFNIDLLEIRNGPRSHESFQEMDLNDDWKLSKDEVKAYLKKEFEKHGAVVNESHHDALVEDIFDKEDEDKDGFISAREFTYKHDEL [FKBP14] | solubility change mitosis (log2): -0.053

Item: MSVFGKLFGAGGGKAGKGGPTPQEAIQRLRDTEEMLSKKQEFLEKKIEQELTAAKKHGTKNKRAALQALKRKKRYEKQLAQIDGTLSTIEFQREALENANTNTEVLKNMGYAAKAMKAAHDNMDIDKVDELMQDIADQQELAEEISTAISKPVGFGEEFDEDELMAELEELEQEELDKNLLEISGPETVPLPNVPSIALPSKPAKKKEEEDDDMKELENWAGSM [CHMP4B] | solubility change mitosis (log2): 0.775

Please turn your attention to the following entry.
Item: MAAPGPALCLFDVDGTLTAPRQKITKEMDDFLQKLRQKIKIGVVGGSDFEKVQEQLGNDVVEKYDYVFPENGLVAYKDGKLLCRQNIQSHLGEALIQDLINYCLSYIAKIKLPKKRGTFIEFRNGMLNVSPIGRSCSQEERIEFYELDKKENIRQKFVADLRKEFAGKGLTFSIGGQISFDVFPDGWDKRYCLRHVENDGYKTIYFFGDKTMPGGNDHEIFTDPRTMGYSVTAPEDTRRICELLFS [PMM2] | solubility change mitosis (log2): -0.0066

Provenance of the data: the supplement of paper PMC5998384
